The reported numbers originate from patent US10759785B2.

- METHOD_DESCRIPTION: Hepatic stability (rat cryopreserved hepatocytes)
- Format: in vitro ADME
- CONDITION_PARAMETERS: pH 7.4, 1 μM test compound, 1×10^6 cells/mL, 37° C., read-out: Averages. Hep Half Life Rat
- Method: Example 29—Hepatic Stability Cryopreserved hepatocytes (rat and human) were obtained from Bioreclamation. Test compound stock solutions in DMSO (10 mM) were diluted with DMSO to 4 mM. Further dilution was completed to achieve a 100 μM stock (5 μL of 4 mM in 195 μL of 50:50 DMSO:hepatocyte buffer). […] Supernatant fraction was removed, cells were re-suspended in hepatocyte buffer and counted by trypan blue exclusion. […] Samples were diluted 1:1 with water using the Janus Robot and analysed by LC-MS/MS.
MEASURED_ENDPOINT: half-life at 1 μM (h)

> print(dat)
                                item.smiles  recorded.result
1  CCn1c(CNC(=O)c2nc(Br)cnc2N)[n+](CC)c2ccc(-c3cnn(C4CCN(C(=N)N)CC4)c3)cc21.O=CO.O=C[O-]              1.5

I = CCn1c(CNC(=O)c2nc(Br)cnc2N)[n+](CC)c2ccc(OCCNC(=O)OC(C)(C)C)cc21.O=C[O-]
II = CCn1c(CNC(=O)c2nc(Br)cnc2N)[n+](CC)c2ccc(-c3cnn(C4CCN(C[C@H](O)[C@@H](O)[C@H](O)[C@H](O)CO)CC4)c3)cc21.O=CO.[Cl-]
Query string: For this pair, I and II , which shows a numerically higher half-life at 1 μM? // respond with label for picked entry
Result string: II
(II: 2.07 h, I: 0.7 h)

====

- METHOD_DESCRIPTION: Microsomal stability (human microsomes)
- Format: in vitro ADME
- CONDITION_PARAMETERS: pH 7.4, 1 μM test compound, 0.5 mg/mL protein, 1 mM NADPH, 37° C., read-out: Averages. Mic Half Life Human
- Protocol: Example 28—Microsomal Stability Microsomes (rat and human) were obtained from Bioreclamation. Test compound stock solutions in DMSO (10 mM) were diluted with DMSO to 2 mM. Further dilution was completed to achieve a 100 μM stock (final concentrations; 91.5% Acetonitrile: 8.5% DMSO). Final test compound concentration in incubation was 1 μM (<0.1% DMSO). […] Samples were diluted 1:1 with water using the Janus Robot and analysed by LC-MS/MS.
MEASURED_ENDPOINT: half-life at 1 μM (h)

Solved entries (count: 3):
> print(dat)
                                   molecule  measured.endpoint  units  recorded.result
1  CCn1c(CNC(=O)c2nc(C)cnc2N)[n+](C)c2ccc(OC)cc21.[I-]  half-life at 1 μM      h            0.367
2  CCn1c(CNC(=O)c2nc(SC)cnc2N)[n+](C)c2ccc(OC)cc21.[I-]  half-life at 1 μM      h           0.0833
3  CCc1cnc(N)c(C(=O)NCc2n(CC)c3cc(OC)ccc3[n+]2C)n1.[I-]  half-life at 1 μM      h            0.383

P = CCn1c(CNC(=O)c2nc(Br)cnc2N)[n+](CCOCCOCCO)c2ccc(OC)cc21.O=C[O-]
Q = CCn1c(CNC(=O)c2nc(Cl)cnc2N)[n+](C)c2ccc(OC)cc21.[I-]
Query string: Hi! Which is lower in terms of half-life at 1 μM, the first one P or the second one Q ? // respond with label for picked entry
Result string: Q
(Q: 0.2 h, P: 1.43 h)

====

- METHOD_DESCRIPTION: Microsomal stability (rat microsomes)
- Type: in vitro ADME
- CONDITION_PARAMETERS: pH 7.4, 1 μM test compound, 0.5 mg/mL protein, 1 mM NADPH, 37° C., read-out: Averages. Mic Half Life Rat
Where a name gives a salt, the structure may show the parent alone.
MEASURED_ENDPOINT: half-life at 1 μM (min)

Solved entries (count: 3):
> print(dat)
                                   compound  recorded.result
1  CCn1c(CNC(=O)c2nc(Br)cnc2N)[n+](C)c2ccc(F)cc21.O=C[O-]                4
2  CCn1c(CNC(=O)c2nc(Br)cnc2N)[n+](C)c2ccc(OC)cc21.[I-]                3
3  CCn1c(CNC(=O)c2nc(Br)cnc2N)[n+](CCO)c2ccc(OC)cc21.O=C[O-]                4

I = CCn1c(CNC(=O)c2nc(Br)cnc2N)[n+](CCOCCOCCO)c2ccc(OC)cc21.O=C[O-]
II = CCn1c(CNC(=O)c2nc(Cl)cnc2N)[n+](C)c2ccc(OC)cc21.[I-]
III = CCn1c(CNC(=O)c2nc(Br)cnc2N)[n+](CC)c2ccc(C(=O)N[C@H]3CCOC3=O)cc21 [Example 18, formate]
Query string: // sort entries: half-life at 1 μM, high to low The labels, placed in the requested order, form the answer.
Result string: III, I, II
(III: 61 min, I: 8 min, II: 4 min)

====

- METHOD_DESCRIPTION: Microsomal stability (rat microsomes)
- Assay type: in vitro ADME
- CONDITION_PARAMETERS: pH 7.4, 1 μM test compound, 0.5 mg/mL protein, 1 mM NADPH, 37° C., read-out: Averages. Mic Half Life Rat
Counter-ions that a name gives are not always drawn.
MEASURED_ENDPOINT: half-life at 1 μM (min)

P = CCn1c(CNC(=O)c2nc(Br)cnc2N)[n+](CC)c2ccc(C(=O)OC)cc21.[I-]
Q = CCn1c(CNC(=O)c2nc(Br)cnc2N)[n+](CC)c2ccc(C(=O)N[C@@H]3CCOC3=O)cc21 [Example 17, formate]
Query string: For this pair, P and Q , which shows a numerically higher half-life at 1 μM? // respond with label for picked entry
Result string: Q
(Q: 29 min, P: 11 min)

1 = CCn1c(CNC(=O)c2nc(Br)cnc2N)[n+](C)c2ccc(OC(F)(F)F)cc21.O=C[O-]
2 = CCn1c(CNC(=O)c2nc(C)cnc2N)[n+](C)c2ccc(OC)cc21.[I-]
3 = CCc1cnc(N)c(C(=O)NCc2n(CC)c3cc(OC)ccc3[n+]2C)n1.[I-]
Query string: // sort entries: half-life at 1 μM, high to low The labels, placed in the requested order, form the answer.
Result string: 1, 2, 3
(1: 11 min, 2: 7 min, 3: 3 min)

====

- METHOD_DESCRIPTION: Hepatic stability (human cryopreserved hepatocytes)
- Type: in vitro ADME
- CONDITION_PARAMETERS: cryopreserved hepatocytes, pH 7.4, 1 μM test compound, 1×10^6 cells/mL, 37° C., read-out: Averages. Hep Half Life Human
Where a name gives a salt, the structure may show the parent alone.
MEASURED_ENDPOINT: half-life at 1 μM (h)

Solved entries (count: 5):
COMPOUND	half-life at 1 μM, h
CCn1c(CNC(=O)c2nc(Br)cnc2N)[n+](C)c2ccc(OC)cc21.[I-] [Example 1]	0.733
CCn1c(CNC(=O)c2nc(C)cnc2N)[n+](C)c2ccc(OC)cc21.[I-] [Example 7]	2.15
CCn1c(CNC(=O)c2nc(Br)cnc2N)[n+](CC)c2ccc(C(=O)N[C@@H]3CCOC3=O)cc21 [Example 17, formate]	1.68
CCn1c(CNC(=O)c2nc(Cl)cnc2N)[n+](C)c2ccc(OC)cc21.[I-] [Example 5]	1.13
CCn1c(CNC(=O)c2nc(Br)cnc2N)[n+](CC)c2ccc(OCCNC(=O)OC(C)(C)C)cc21.O=C[O-] [Example 24]	1.22

I = CCn1c(CNC(=O)c2nc(Br)cnc2N)[n+](CC)c2ccc(-c3cnn(C4CCN(C[C@H](O)[C@@H](O)[C@H](O)[C@H](O)CO)CC4)c3)cc21.O=CO.[Cl-] [Example 23]
II = CCn1c(CNC(=O)c2nc(Br)cnc2N)[n+](C)c2ccc(OC(F)(F)F)cc21.O=C[O-] [Example 14]
Query string: Hi! Which is lower in terms of half-life at 1 μM, the first one I or the second one II ? // respond with label for picked entry
Result string: I

====

- METHOD_DESCRIPTION: Hepatic stability (human cryopreserved hepatocytes)
- Type: in vitro ADME
- CONDITION_PARAMETERS: cryopreserved hepatocytes, pH 7.4, 1 μM test compound, 1×10^6 cells/mL, 37° C., read-out: Averages. Hep Half Life Human
Counter-ions that a name gives are not always drawn.
MEASURED_ENDPOINT: half-life at 1 μM (h)

Solved entries (count: 4):
> print(dat)
                                   compound  measured.endpoint  recorded.result
1  CCn1c(CNC(=O)c2nc(Br)cnc2N)[n+](CC)c2ccc(-c3cnn(C4CCN(C(=O)OC(C)(C)C)CC4)c3)cc21.[I-] [Example 20]  half-life at 1 μM             1.17
2  CCn1c(CNC(=O)c2nc(Br)cnc2N)[n+](CC)c2ccc(OC)cc21.O=C[O-] [Example 2]  half-life at 1 μM              1.5
3  CCn1c(CNC(=O)c2nc(Br)cnc2N)[n+](CC)c2ccc(-c3cnn(C4CCNCC4)c3)cc21.Cl.[I-] [Example 21]  half-life at 1 μM              1.1
4  CCn1c(CNC(=O)c2nc(Br)cnc2N)[n+](CC)c2ccc(C(=O)OC)cc21.[I-] [Example 15]  half-life at 1 μM             2.57

a = CCn1c(CNC(=O)c2nc(Br)cnc2N)[n+](CC)c2ccc(C(=O)N[C@H]3CCOC3=O)cc21 [Example 18, formate]
b = CCn1c(CNC(=O)c2nc(Br)cnc2N)[n+](CC)c2ccc(-c3cnn(C4CCN(C(=N)N)CC4)c3)cc21.O=CO.O=C[O-] [Example 22]
c = CCn1c(CNC(=O)c2nc(C#N)cnc2N)[n+](CC)c2ccc(OC)cc21 [Example 26, formate]
Query string: // sort entries: half-life at 1 μM, high to low The labels, placed in the requested order, form the answer.
Result string: c, a, b
